System: SEM cells
Assay: cell viability relative to DMSO control; higher = less cytotoxic
Details: RPMI 5 mM glucose + 10% dialyzed FBS; 48 h; 0.569 µM
So I've got a bunch of molecules here, and I need their cell viability values.
Answers are plain numbers, in %.

Worked cases, answers included:
[
  {
    "MOLECULE": "COc1ccc(C2(C#N)CCC(C(=O)O)CC2)cc1OC1CCCC1 (stereo not drawn)",
    "cell viability / %": 92.2
  },
  {
    "MOLECULE": "COc1cc2c(Nc3ccc(Cl)c(Cl)c3F)ncnc2cc1OC[C@@H]1C[C@@H]2CN(C)C[C@@H]2C1",
    "cell viability / %": 103
  }
]

Here's the next entry for you.
response.value for COc1ccc2[nH]cc(CCNC(C)=O)c2c1 (field: cell viability) = 120

---

Test system: SEM cells
Experiment: cell viability relative to DMSO control; higher = less cytotoxic
Settings: RPMI 5 mM glucose + 10% dialyzed FBS; 48 h; 5.12 µM
Please go through the items and note down their cell viability.
Give bare numbers, in %.

Answered cases to consult:
[
  {
    "SMILES": "Nc1ccc([S+](=O)([O-])Nc2ncccn2)cc1",
    "STUDY TARGET": "SEM cells",
    "VALUE OBSERVED": 145
  },
  {
    "SMILES": "Cc1ccc([S+](=O)([O-])Nc2cc(Cl)ccc2C(=O)Nc2nc(-c3ccccc3)cs2)cc1",
    "STUDY TARGET": "SEM cells",
    "VALUE OBSERVED": 126
  },
  {
    "SMILES": "N#C/C(=C1/Nc2ccccc2S1)c1ccnc(OCc2ccc(CN3CCOCC3)cc2)n1",
    "STUDY TARGET": "SEM cells",
    "VALUE OBSERVED": 104
  }
]

From here, focus on the item given below.
Record NCCc1ccc(O)c(O)c1 . Reported cell viability: 107

---

Test system: NOMO1
Assay: cell viability relative to DMSO control; higher = less cytotoxic
Settings: RPMI 5 mM glucose + 10% dialyzed FBS; 48 h; 0.569 µM
METRIC: cell viability (%)
One number for each entry, in %.

[
  {
    "COMPOUND": "CC(C)(C)OC(=O)Nc1ccc(-c2cc(C(=O)NCCCCCCC(=O)NO)no2)cc1",
    "cell viability [%]": 101
  },
  {
    "COMPOUND": "Nc1nc(NCCNc2ncc(-n3ccnc3)c(-c3ccc(Cl)cc3Cl)n2)ccc1[N+](=O)[O-]",
    "cell viability [%]": 139
  },
  {
    "COMPOUND": "O=[S+]([O-])(NCCNC/C=C/c1ccc(Br)cc1)c1cccc2cnccc12",
    "cell viability [%]": 89.1
  },
  {
    "COMPOUND": "C1CN\\2C[C@@H](\\N=C2S1)C3=CC=CC=C3",
    "cell viability [%]": 86.8
  },
  {
    "COMPOUND": "CCN(CC)CCCC(C)Nc1nc(C)cc(Nc2ccc3nc(C)cc(N)c3c2)n1 (stereo unspecified)",
    "cell viability [%]": 120
  }
]

Could you now consider this next compound?
For reference, reported cell viability for Cc1cnc(Nc2ccc(N3CCN(C)CC3)cc2)nc1Nc1cccc([S+](=O)([O-])NC(C)(C)C)c1 stands at 101
